Organism: Rattus norvegicus
protocolDescription: DrugMatrix - Regimen: Daily Repeat
Type: toxicity, organism-based, Sprague-Dawley
Set-up: regimen Daily Repeat, gender Male, age 6-8 weeks
settings: in vivo, po, 0 mg/kg, 72 h, tissue Plasma, route oral GAVAGE, dose level Control, time 3 day, vehicle .5 % CMC

>  <moleculeSmiles>
CCOP(=S)(OCC)Oc1nc(Cl)c(Cl)cc1Cl

>  <ASPARTATE AMINOTRANSFERASE [u/L]>
72.5

$$$$
>  <moleculeSmiles>
COc1nc(C)nc(Cl)c1N=C1NCCN1

>  <ASPARTATE AMINOTRANSFERASE [u/L]>
93.17

$$$$
>  <moleculeSmiles>
ClC(Br)Br

>  <ASPARTATE AMINOTRANSFERASE [u/L]>
96

$$$$
>  <moleculeSmiles>
OCCN(CCO)c1nc(N2CCCCC2)c2nc(N(CCO)CCO)nc(N3CCCCC3)c2n1

>  <ASPARTATE AMINOTRANSFERASE [u/L]>
63.17

$$$$
>  <moleculeSmiles>
O=C(CCCN1CC=C(n2c(=O)[nH]c3ccccc32)CC1)c1ccc(F)cc1

>  <ASPARTATE AMINOTRANSFERASE [u/L]>
62.83

$$$$
>  <moleculeSmiles>
N=C(N)NCCN1CCCCCCC1

>  <ASPARTATE AMINOTRANSFERASE [u/L]>
63.17

$$$$
>  <moleculeSmiles>
Cc1ccc(/N=C/N(C)/C=N/c2ccc(C)cc2C)c(C)c1

>  <ASPARTATE AMINOTRANSFERASE [u/L]>
82.17

$$$$
>  <moleculeSmiles>
CC(C)(C)NC(=O)[C@@H]1C[C@@H]2CCCC[C@@H]2CN1C[C@@H](O)[C@H](Cc1ccccc1)NC(=O)[C@H](CC(N)=O)NC(=O)c1ccc2ccccc2n1

>  <ASPARTATE AMINOTRANSFERASE [u/L]>
81.17

$$$$
>  <moleculeSmiles>
CN1CCN(CCCN2c3ccccc3Sc3ccc(Cl)cc32)CC1

>  <ASPARTATE AMINOTRANSFERASE [u/L]>
89.5

$$$$
